Parameter Ratio of GSPT1 DC50/Cyclin E1 DC50: see the listing below.
# Target desc: Cyclin E1 (Homo sapiens, UniProt P24864+Q96SW2)
# Sequence (P24864 whole entry): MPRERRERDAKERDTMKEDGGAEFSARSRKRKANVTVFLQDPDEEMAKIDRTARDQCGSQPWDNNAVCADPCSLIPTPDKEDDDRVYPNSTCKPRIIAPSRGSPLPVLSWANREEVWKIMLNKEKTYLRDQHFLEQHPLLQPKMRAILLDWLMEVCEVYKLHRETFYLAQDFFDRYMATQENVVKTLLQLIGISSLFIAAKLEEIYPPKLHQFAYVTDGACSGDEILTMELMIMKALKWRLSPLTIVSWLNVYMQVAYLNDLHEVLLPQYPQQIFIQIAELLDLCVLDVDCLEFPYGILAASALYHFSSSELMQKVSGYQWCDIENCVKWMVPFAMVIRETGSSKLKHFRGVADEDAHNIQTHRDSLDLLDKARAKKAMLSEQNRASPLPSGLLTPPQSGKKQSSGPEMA
# Sequence (Q96SW2 whole entry): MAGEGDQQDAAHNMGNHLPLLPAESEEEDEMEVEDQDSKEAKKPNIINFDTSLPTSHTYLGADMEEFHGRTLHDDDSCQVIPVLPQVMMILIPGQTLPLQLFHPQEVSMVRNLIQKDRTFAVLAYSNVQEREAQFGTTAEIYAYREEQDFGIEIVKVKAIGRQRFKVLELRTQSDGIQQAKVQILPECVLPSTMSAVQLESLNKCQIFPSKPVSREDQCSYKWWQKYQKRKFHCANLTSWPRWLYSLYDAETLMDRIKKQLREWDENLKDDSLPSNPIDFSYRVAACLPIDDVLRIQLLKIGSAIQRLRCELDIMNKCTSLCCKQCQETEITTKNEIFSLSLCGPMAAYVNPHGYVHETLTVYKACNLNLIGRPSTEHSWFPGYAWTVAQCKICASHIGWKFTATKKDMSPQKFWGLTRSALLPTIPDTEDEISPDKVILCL
# Sequence (Q16531 whole entry partner): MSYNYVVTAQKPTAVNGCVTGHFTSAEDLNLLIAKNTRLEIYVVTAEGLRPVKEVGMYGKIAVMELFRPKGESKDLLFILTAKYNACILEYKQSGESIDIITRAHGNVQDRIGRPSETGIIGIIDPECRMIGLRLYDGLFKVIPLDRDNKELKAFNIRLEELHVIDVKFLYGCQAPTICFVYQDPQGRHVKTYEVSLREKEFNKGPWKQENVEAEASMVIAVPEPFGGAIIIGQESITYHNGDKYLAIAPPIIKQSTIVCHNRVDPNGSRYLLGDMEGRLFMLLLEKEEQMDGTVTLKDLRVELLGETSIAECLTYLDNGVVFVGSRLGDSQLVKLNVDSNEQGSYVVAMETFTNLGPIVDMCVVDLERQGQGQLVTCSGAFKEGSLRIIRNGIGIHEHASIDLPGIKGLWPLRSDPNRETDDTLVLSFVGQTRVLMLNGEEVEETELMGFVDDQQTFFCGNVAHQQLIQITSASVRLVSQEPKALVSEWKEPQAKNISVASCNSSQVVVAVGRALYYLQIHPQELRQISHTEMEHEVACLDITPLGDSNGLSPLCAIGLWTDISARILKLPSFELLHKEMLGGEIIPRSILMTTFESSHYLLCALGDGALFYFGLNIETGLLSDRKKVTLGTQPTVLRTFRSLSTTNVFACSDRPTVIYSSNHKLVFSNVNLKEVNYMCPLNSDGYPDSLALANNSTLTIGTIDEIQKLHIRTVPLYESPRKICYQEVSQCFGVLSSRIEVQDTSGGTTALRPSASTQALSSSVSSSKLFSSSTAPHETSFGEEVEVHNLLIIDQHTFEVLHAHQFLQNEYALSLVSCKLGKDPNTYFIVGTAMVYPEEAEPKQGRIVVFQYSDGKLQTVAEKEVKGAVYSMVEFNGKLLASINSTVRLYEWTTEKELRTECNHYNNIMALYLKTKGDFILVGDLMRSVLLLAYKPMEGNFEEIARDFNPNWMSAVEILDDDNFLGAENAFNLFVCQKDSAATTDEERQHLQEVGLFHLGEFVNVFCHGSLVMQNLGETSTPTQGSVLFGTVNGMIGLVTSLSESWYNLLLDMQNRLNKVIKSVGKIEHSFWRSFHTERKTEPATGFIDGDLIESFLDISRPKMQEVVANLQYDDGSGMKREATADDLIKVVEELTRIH
# Measurement protocol: Cyclin E1 Cellular Degradation Assay (MSD)
# Assay type: cell-based
# Set-up: endogenous in cells; host or cells: OVCAR3
# Test parameters: selectivity for degradation of Cyclin E1 over GSPT1

Compound	Ratio of GSPT1 DC50/Cyclin E1 DC50
COc1c(COC(=O)Nc2ccc(Oc3cccc(Cl)c3)cc2)ccc2c1C(=O)N(C1CCC(=O)NC1=O)C2 (stereo not shown) [Example 3]	>153
COc1c(COC(=O)Nc2ccc(Oc3cc(F)c(F)cc3F)cc2F)ccc2c1C(=O)N(C1CCC(=O)NC1=O)C2 (stereo not shown) [Example 43]	>85
O=C1CCC(N2Cc3ccc(COC(=O)Nc4ccc(Oc5ccccc5F)cc4)c(Oc4ccccc4)c3C2=O)C(=O)N1 (stereo not shown) [Example 65]	>85
CC(C)(O)COc1c(COC(=O)Nc2ccc(Oc3cc(F)c(F)c(F)c3)cc2F)ccc2c1C(=O)N(C1CCC(=O)NC1=O)C2 (stereo not shown) [Example 165]	>332
